Test: MELAS cybrid and Rieske KO viability enhancers – cell-based, MELAS cybrids, Rieske KO mouse fibroblasts, CellTiter-Glo, primary screen (AID 1508586); further: test concentration not given here
Details: MELAS cybrid survival, low glucose, CellTiter-Glo 48 h
Active and inactive are the calls of the source.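 How the source made its calls: active means mean z-score across replicates of 1.96 or higher in either the MELAS or the Rieske mutant cell line; inactive means the rest.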
Your response should consist of one outcome taken from active, inactive

Here's what some known entries look like.
>>> category_label("O=C(OC1Cc2c(O)cc(O)cc2OC1c1cc(O)c(O)c(O)c1)c1cc(O)c(O)c(O)c1 (stereo not given)")
"inactive"
>>> category_label("NC(=O)c1ncn(C2OC(CO)C(O)C2O)c1N (stereo not given)")
"inactive"
>>> category_label("C=C1c2cccc(O)c2C(O)=C2C(=O)[C@]3(O)C(O)=C(C(N)=O)C(=O)C(N(C)C)[C@@H]3C(O)[C@H]12 (stereo not given in full)")
"active"
>>> category_label("Cc1cc(C(=O)N2CCc3[nH]nc(COc4ccccc4)c3C2)c(C)o1")
"inactive"
>>> category_label("Cc1c(CN2CCc3c(c(C(=O)NC4CCCC4)nn3CC(C)C)C2)c(=O)n(-c2ccccc2)n1C")
"inactive"

-- ask Please share the test call associated with Cc1cc(Nc2ccc(NC(=O)c3ccc(Nc4ccnc5ccccc45)cc3)cc2)nc(N)n1 .
-- reply inactive

-- ask Please share the test call associated with O=S(=O)(Nc1cc(-c2cccs2)nn1-c1ccc(F)cc1)c1cccc(F)c1 .
-- reply inactive

-- ask Please share the test call associated with CCn1cnc(NC(=O)N(C)Cc2ccc(OC)cc2)n1 .
-- reply inactive

-- ask Please share the test call associated with COc1cc(-c2cc(-c3cccc(O)c3)cnc2N)cc(OC)c1OC .
-- reply inactive

-- ask Please share the test call associated with O=C(c1ccc(C=Cc2n[nH]c3ccccc23)cc1)N1CCNCC1 .
-- reply inactive
